# TARGET: Cyclin-dependent kinase 5/CDK5 activator 1 (Homo sapiens, UniProt Q00535)
# Sequence (Q00535 whole entry): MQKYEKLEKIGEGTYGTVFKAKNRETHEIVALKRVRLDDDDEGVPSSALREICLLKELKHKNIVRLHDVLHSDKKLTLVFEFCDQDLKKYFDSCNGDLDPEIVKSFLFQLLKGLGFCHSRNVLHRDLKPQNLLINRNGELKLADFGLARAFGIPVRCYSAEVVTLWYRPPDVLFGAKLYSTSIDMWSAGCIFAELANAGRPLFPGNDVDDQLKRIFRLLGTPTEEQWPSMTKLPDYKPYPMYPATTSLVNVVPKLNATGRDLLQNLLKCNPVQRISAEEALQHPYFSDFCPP
# Sequence (Q15078 whole entry, further chain): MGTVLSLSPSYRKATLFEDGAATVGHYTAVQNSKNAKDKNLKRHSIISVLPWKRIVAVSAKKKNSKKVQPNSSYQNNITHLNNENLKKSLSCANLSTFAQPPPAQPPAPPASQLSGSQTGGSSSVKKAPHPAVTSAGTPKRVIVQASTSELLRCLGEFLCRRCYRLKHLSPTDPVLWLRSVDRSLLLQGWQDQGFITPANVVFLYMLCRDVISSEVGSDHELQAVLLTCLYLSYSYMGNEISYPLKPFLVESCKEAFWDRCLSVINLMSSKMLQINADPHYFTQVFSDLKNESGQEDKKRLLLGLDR
# EXPERIMENT_SUMMARY: Inhibition of human CDK5/p25NCK using histone H1 as substrate preincubated for 10 mins followed by substrate and ATP addition and measured after 60 mins by ADP-Glo reagent based microplate reader assay
VALUE_KIND: Ki (nM)
Express the result in nM but write the number alone.

CHEMICAL_STRUCTURE	VALUE_KIND	READOUT_UNIT	REPORTED_VALUE
CC(C)c1cnn2c3nc(nc12)N(C[C@@H]1CNC[C@H]1O)CCCCCOc1ccccc1CN3	Ki	nM	0.9
CC(C)c1cnn2c3nc(nc12)N(CC1CCNCC1)CCCCCOc1cc(F)c(F)cc1CN3	Ki	nM	4.4

Query string: Could you tell me which Ki is on file for `CC(C)c1cnn2c3nc(nc12)N(CC(C)(C)CN)CCCCCOc1ccccc1CN3` ?
Result string: 60.3

* * *

# TARGET: Cyclin-dependent kinase 5/CDK5 activator 1 (Homo sapiens)
# EXPERIMENT_SUMMARY: Inhibition of human CDK5/p25NCK using histone H1 as substrate preincubated for 10 mins followed by substrate and ATP addition and measured after 60 mins by ADP-Glo reagent based microplate reader assay
VALUE_KIND: pKi
Scale note: pKi = -log10(concentration in M).

// worked examples, pKi included
MOLECULE	pKi
CC(C)c1cnn2c3nc(nc12)N(CC1CCNCC1)CCCCCOc1ccc(F)cc1CN3	8.60
CC(C)c1cnn2c3nc(nc12)N(CC1CCNC1)CCCCCOc1ccccc1CN3 (centres undefined)	8.44
CC(C)c1cnn2c3nc(nc12)N(CC1CCN(C)CC1)CCCCCOc1ccccc1CN3	9.00
CC(C)c1cnn2c3nc(nc12)N(CC1CCNCC1)CCCCCOc1cc(S(C)(=O)=O)ccc1CN3	8.62

Query string: Please state recorded pKi (tested on Cyclin-dependent kinase 5/CDK5 activator 1 (Homo sapiens)) of CC(C)c1cnn2c3nc(nc12)N(CC1CCCNC1)CCCCCOc1ccccc1CN3 (centres undefined)
Result string: 6.86

Query string: Try this molecule next: `CC(C)c1cnn2c3nc(nc12)N(CC1CNC1)CCCCCOc1ccccc1CN3`
Result string: 7.51

Query string: Quick one: `CC(C)c1cnn2c3nc(nc12)N(CC1CCNCC1)CCCCCOc1cc(C(F)(F)F)ccc1CN3`
Result string: 7.38

Query string: Proceed to `CC(C)c1cnn2c3nc(nc12)N(CCC1CNC1)CCCCCOc1ccccc1CN3`
Result string: 7.54

Query string: Okay, and `CC(C)c1cnn2c3nc(nc12)N(CC1CCNCC1)CCCCCOc1cc(C#N)ccc1CN3` ?
Result string: 8.36

* * *

# EXPERIMENT_SUMMARY: Metabolic stability in mouse liver microsomes assessed as half life at 1 uM preincubated with compound for 10 mins followed by beta-NADPH addition measured upto 60 mins by LC-MS/MS analysis
# Type: ADME, Microsome
# APPLIED_CONDITIONS: time < 70 min
Reported half-life at 1 µM values for the following compounds.
Give the value in min but do not write min after it.

CHEMICAL_STRUCTURE	half-life at 1 µM / min
CC(C)c1cnn2c3nc(nc12)N(CC1CNC1)CCCCCOc1ccc(F)cc1CN3	15.2
CC(C)c1cnn2c3nc(nc12)N(CC1CNC1)CCCCCOc1cc(S(C)(=O)=O)ccc1CN3	112
CC(C)c1cnn2c3nc(nc12)N(CC1CNC1)CCCCCOc1ccccc1CN3	61.9
CC(C)n1cnc2c3nc(nc21)N(CC1CNC1)CCCCCOc1cc(S(C)(=O)=O)ccc1CN3	6.3

As a next step, examine the compound that follows.
Query string: Return reported half-life at 1 µM; argument: `CC(C)c1cnn2c3nc(nc12)N(CC1CNC1)CCCCCOc1cc(F)c(F)cc1CN3`
Result string: 22
